Data origin: patent US10294202B2

Test system: corn
Test protocol: Test A pre-/postemergence herbicide test
Format: in vivo, Zea mays
Details: Postemergence, 500 g ai/ha; 0 to 100 scale (0 no effect, 100 complete control)
Label 1 for high-side Plant response rating, Corn (at or above 30) and 0 for low-side Plant response rating, Corn (below it).

{"Compound": "O=C1NCC(c2cc3ccccc3s2)C1C(=O)Nc1ccccc1C(F)(F)F (stereo not drawn) [Compound 297]", "Experimental target": "corn", "Answer label": 0}
{"Compound": "O=C1NCC(c2ccccc2)C1C(=O)Nc1cccc(F)c1F (stereo not drawn) [Compound 65]", "Experimental target": "corn", "Answer label": 0}
{"Compound": "COc1cccc(NC(=O)C2C(=O)NCC2c2ccc(F)c(F)c2)n1 (stereo not drawn) [Compound 58]", "Experimental target": "corn", "Answer label": 0}
{"Compound": "O=C1NCC(c2cccc(Oc3ccccc3)c2)C1C(=O)Nc1ccccc1F (stereo not drawn) [Compound 330]", "Experimental target": "corn", "Answer label": 0}
{"Compound": "O=C1NCC(c2cccc(Br)c2)C1C(=O)Nc1ccccc1F (stereo not drawn) [Compound 66]", "Experimental target": "corn", "Answer label": 1}
{"Compound": "O=C1NCC(c2cccc(C(F)(F)F)c2)C1C(=O)Nc1ccccc1F (racemic) [Compound 3]", "Experimental target": "corn", "Answer label": 1}
{"Compound": "O=C1NCC(c2ccc(C(F)(F)F)nc2)C1C(=O)Nc1cccc(F)c1F (racemic) [Compound 263]", "Experimental target": "corn", "Answer label": 1}
{"Compound": "O=C1NCC(c2ccc(F)cc2)C1C(=O)Nc1cccc(F)c1F (racemic) [Compound 119]", "Experimental target": "corn", "Answer label": 1}
{"Compound": "O=C1NCC(c2ccc(F)c(F)c2)C1C(=O)Nc1ccccc1Br (stereo not drawn) [Compound 55]", "Experimental target": "corn", "Answer label": 0}
{"Compound": "O=C1NCC(c2cccc(OC(F)F)c2)C1C(=O)Nc1cccc(F)c1F (stereo not drawn) [Compound 324]", "Experimental target": "corn", "Answer label": 1}
